Assay read-out IC50 on UniProt P10635; records merged from the literature.

{"molecule": "Cc1cnc(Nc2cnn(CCO)c2)nc1-c1ccc(C(=O)N[C@@H](C)C#N)cc1", "target system": "UniProt P10635", "IC50": "> 50 µM"}
{"molecule": "CC[C@@H](C#N)NC(=O)c1ccc(-c2nc(Nc3cnn(C(C)C(F)(F)F)c3)ncc2C)cc1 (stereo partly shown)", "target system": "UniProt P10635", "IC50": "30.7 µM"}
{"molecule": "COc1ccc2c3c([nH]c2c1)[C@H](CC(C)C)N1C(=O)[C@H](C)NC(=O)[C@@H]1C3", "target system": "UniProt P10635", "IC50": "> 30 µM"}
{"molecule": "CS(=O)(=O)CC(=O)Nc1c(-c2ccc(Cl)cn2)nn2c1C(=O)N[C@]1(CCOc3cc(F)cc(F)c31)C2", "target system": "UniProt P10635", "IC50": "> 20 µM"}
